Cited source: patent US7196110B2

// values below are reported inhibition at 10 µM
# tested-on: PDGF-receptor beta enzyme comprising the tyrosine kinase domain (Homo sapiens, UniProt P09619)
# Construct: from amino acid 545 to 1106 of GenBank Access NO: AAA36427
# Sequence (P09619 545-1106): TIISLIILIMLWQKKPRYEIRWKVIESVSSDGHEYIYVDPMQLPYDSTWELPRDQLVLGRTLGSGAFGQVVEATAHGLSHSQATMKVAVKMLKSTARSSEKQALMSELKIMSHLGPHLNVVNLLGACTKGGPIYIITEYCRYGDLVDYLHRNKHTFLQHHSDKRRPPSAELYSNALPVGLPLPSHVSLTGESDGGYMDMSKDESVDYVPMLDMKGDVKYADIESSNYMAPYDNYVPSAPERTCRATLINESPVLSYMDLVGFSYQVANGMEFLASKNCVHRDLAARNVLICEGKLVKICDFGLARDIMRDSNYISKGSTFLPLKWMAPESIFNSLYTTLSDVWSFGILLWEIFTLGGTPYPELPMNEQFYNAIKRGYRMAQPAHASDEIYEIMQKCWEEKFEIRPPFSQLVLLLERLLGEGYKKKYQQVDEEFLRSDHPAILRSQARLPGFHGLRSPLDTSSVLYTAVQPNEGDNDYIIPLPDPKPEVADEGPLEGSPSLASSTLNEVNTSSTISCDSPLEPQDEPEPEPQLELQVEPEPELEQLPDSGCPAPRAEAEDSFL
# run-description: Inhibition of PDGF-receptor kinase activity (cell-free, PLC1 peptide, 33P Flashplate)
# Assay type: biochemical
# condition: PDGF-R kinase activity; compound at 10 uM; read-out: Percent Inhibition @ 10 uM
Could you give me the number in %? Just the number is fine.

COCCCOc1cc2c(cc1OCCCOC)-c1n[nH]c(Nc3cccc(F)c3)c1C2 [Compound 283]	86.5

Entry under test: COc1ccccc1CNc1[nH]nc2c1Cc1cc(OC)c(OC)cc1-2 [Compound 224] . Its inhibition at 10 µM was 24

Entry under test: COc1cc2c(cc1OC)-c1n[nH]c(Nc3cccc(OCc4ccccc4)c3)c1C2 [Compound 54] . Its inhibition at 10 µM was 76

Entry under test: CC(O)c1cccc(Nc2[nH]nc3c2Cc2cc(F)ccc2-3)c1 (stereo not drawn) [Compound 289] . Its inhibition at 10 µM was 93.5

Entry under test: COc1ccc(Nc2[nH]nc3c2Cc2c(OC)cccc2-3)c(OC)c1 [Compound 148] . Its inhibition at 10 µM was 57

Entry under test: Fc1ccc(F)c(Nc2[nH]nc3c2Cc2ccccc2-3)c1 [Compound 339] . Its inhibition at 10 µM was 100

---

// values below are reported inhibition at 10 µM
# tested-on: PDGF-receptor beta enzyme comprising the tyrosine kinase domain (Homo sapiens, UniProt P09619)
# Construct: from amino acid 545 to 1106 of GenBank Access NO: AAA36427
# run-description: Inhibition of PDGF-receptor kinase activity (cell-free, PLC1 peptide, 33P Flashplate)
# Format: biochemical
# condition: PDGF-R kinase activity; compound at 10 uM; read-out: Percent Inhibition @ 10 uM
Record the result as a number with its unit.

CNCCNC(=O)n1nc(Nc2cccc(F)c2)c2c1-c1cc(OC)c(OC)cc1C2	78%
COc1cc2c(cc1OCC(O)CO)Cc1c-2n[nH]c1Nc1cccc(F)c1 (stereo not drawn)	90%
COc1cc2c(cc1OC)-c1n[nH]c(Nc3ccc(Br)cn3)c1C2	82%

Entry under test: `COc1cc2c(cc1OC)-c1n[nH]c(Nc3cccc(Br)c3)c1C2` . Its inhibition at 10 µM was 94%

Entry under test: COC(=O)C(CC(C)C)NC(=O)n1nc2c(c1Nc1cccc(F)c1)Cc1cc(OC)c(OC)cc1-2 (stereo not drawn) . Its inhibition at 10 µM was 44%

Entry under test: `COc1ccc2c(c1)-c1n[nH]c(Nc3cc(F)ccc3F)c1C2` . Its inhibition at 10 µM was 46.5%

---

# tested-on: PDGF-receptor beta enzyme comprising the tyrosine kinase domain (Homo sapiens, UniProt P09619)
# Construct: from amino acid 545 to 1106 of GenBank Access NO: AAA36427
# run-description: Inhibition of PDGF-receptor kinase activity (cell-free, PLC1 peptide, 33P Flashplate)
# Format: biochemical
# condition: PDGF-R kinase activity; compound at 10 uM; read-out: Percent Inhibition @ 10 uM
// values below are reported inhibition at 10 µM
Could you give me the number in %? Just the number is fine.

Record excerpt, results attached:
CCOc1cc2c(cc1OCC)C(C)c1c-2n[nH]c1Nc1ccc(F)cc1 (stereo not shown)	78
COc1ccc(Nc2[nH]nc3c2C(C)c2ccccc2-3)cc1 (stereo not shown)	56
COc1cc2c(c(Cc3ccccc3)c1O)-c1n[nH]c(Nc3cccc(F)c3)c1C2	53.5

Could you now look at the following compound, please?
Entry under test: COc1cc2c(cc1OC)C(C)c1c(Nc3cccc(Br)c3)nn(C(=O)OCCOCCOCCO)c1-2 (stereo not shown) . Its inhibition at 10 µM was 82.5
